# studyTarget: T1, extracellular domain of activin receptor type IIB (ActRIIBecd), biotinylated (Homo sapiens (Human), UniProt Q13705 27-117, amino-biotinylated with amine-PEG3-Biotin)
# T1 construct: immobilised on a streptavidin-coated sensor chip; also called biotinylated ActRIIBecd; extracellular domain of ActRIIB
# T1 sequence: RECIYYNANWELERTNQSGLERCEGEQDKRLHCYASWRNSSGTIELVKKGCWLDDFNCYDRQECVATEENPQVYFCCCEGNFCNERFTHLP
# testMethodNotes: BIAcore SPR, biotinylated ActRIIBecd on chip; SD ±19.51 nM
assayReadout: pKd
Keep it numeric: pKd is minus log10 of the concentration in mol/L.

INPUT: Form field: reported pKd of Recombinant polypeptide of clones 12 + 16 (designed binder) AQAKHKQYKRLKSSCKRHPLYVDFSDVGWNDWAVAPPGYHAFYCHGECPFPLADHLNSDNHAIVQTLVNSV
OUTPUT: 7.17
